assaySystem: human serotonin transporter (Homo sapiens (Human), UniProt P31645)
Sequence (P31645 whole entry): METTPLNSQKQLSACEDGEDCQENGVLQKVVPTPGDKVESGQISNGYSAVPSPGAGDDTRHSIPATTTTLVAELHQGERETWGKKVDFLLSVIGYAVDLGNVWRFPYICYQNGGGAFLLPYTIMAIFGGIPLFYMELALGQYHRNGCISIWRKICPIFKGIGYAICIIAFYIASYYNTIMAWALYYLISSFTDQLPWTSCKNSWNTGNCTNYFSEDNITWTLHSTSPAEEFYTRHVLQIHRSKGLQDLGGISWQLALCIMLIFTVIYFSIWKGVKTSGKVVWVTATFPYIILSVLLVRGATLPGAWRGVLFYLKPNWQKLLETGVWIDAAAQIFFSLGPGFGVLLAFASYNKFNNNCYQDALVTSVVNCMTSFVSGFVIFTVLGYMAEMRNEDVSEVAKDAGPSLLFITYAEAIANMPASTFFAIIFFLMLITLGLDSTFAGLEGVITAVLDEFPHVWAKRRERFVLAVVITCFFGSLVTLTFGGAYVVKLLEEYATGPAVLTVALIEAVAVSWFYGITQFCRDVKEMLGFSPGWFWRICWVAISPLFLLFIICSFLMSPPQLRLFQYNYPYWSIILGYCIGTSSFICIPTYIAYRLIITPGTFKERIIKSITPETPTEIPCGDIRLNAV
protocolText: Serotonin functional uptake assay, recombinant human transporter in HEK-293 cells
Format: cell-based
experimentalSetup: Human serotonin transporter uptake; read-out: hSERT IC50
// reported pIC50 for each item listed
Friendly reminder that pIC50 comes from taking -log10 of the concentration in mol/L.

Example entries begin here.
CNC[C@@]1(c2ccc(OC(F)(F)F)cc2)CCCC[C@H]1O (single isomer, unassigned) [145 E1] = 7.12
CN(C)C[C@]1(c2ccc(C(F)(F)F)cc2)CCCC[C@H]1O (single isomer, unassigned) [160 E1] = 5.14
COc1ccc([C@]2(CN(C)C)CCCC[C@H]2O)cc1 (single isomer, unassigned) [155 E1] = 5.52

Now look at this one.
[Q] Provide human serotonin transporter (Homo sapiens (Human), UniProt P31645) pIC50 reading for COc1ccc([C@@]2(CN(C)C)CCCC[C@H]2O)cc1 (single isomer, unassigned) [156 E2] .
[A] 6.19

###

assaySystem: 5-HT Transporter (SERT) sites in mouse brain (Mus musculus (Mouse), UniProt Q60857)
protocolText: Ex vivo [3H] citalopram binding to SERT sites in mouse brain after oral dosing
experimentalSetup: mouse; mice, 1 mg/kg PO, 60 min after treatment
Where a name gives a salt, the structure may show the parent alone.
// reported receptor occupancy at 1 mg/kg for each item listed
Field: numeric (%). Do not append units.

Example entries begin here.
CN(C)C[C@]1(c2ccc3ccccc3c2)CCCC[C@H]1O (relative stereo) [164 E1] = 20
CC(N(C)C)C1(c2ccc3ccccc3c2)CCCCC1 (single isomer, unassigned) [56 E1] = 19
CN(C)C[C@]1(c2ccc(Cl)c(Cl)c2)CCCC[C@H]1O (relative stereo) [153 E2] = -1
CN[C@H](C)C1(c2ccc(Cl)c(Cl)c2)CCCCC1 (stereo in doubt) [48 E1, hydrochloride] = -1
CNCC1(c2ccc(Cl)c(Cl)c2)CCC(C)(O)CC1 (stereo not shown) = 12
CNC(C)C1(c2ccc3ccccc3c2)CCCCC1 (single isomer, unassigned) [58 E1] = 5

Now look at this one.
[Q] Fill in receptor occupancy at 1 mg/kg for record CN(C)CC1(c2ccc(Cl)c(Cl)c2)CCC(C)(O)CC1 (stereo not shown)
[A] -6

###

assaySystem: 5-HT Transporter (SERT) sites in mouse brain (Mus musculus (Mouse), UniProt Q60857)
protocolText: Ex vivo [3H] citalopram binding to SERT sites in mouse brain after oral dosing
experimentalSetup: mouse; mice, 3 mg/kg PO, 60 min after treatment
// reported receptor occupancy at 3 mg/kg for each item listed
Field: numeric (%). Do not append units.

Example entries begin here.
CC(N(C)C)C1(c2ccc3ccccc3c2)CCCCC1 (single isomer, unassigned) [56 E1] = 58
CN(C)C[C@]1(c2ccc3ccccc3c2)CCCC[C@H]1O (relative stereo) [164 E1] = 35
CNC(C)C1(c2ccc3ccccc3c2)CCCCC1 (single isomer, unassigned) [58 E1] = 11
CN(C)CC1(c2ccc(Cl)c(Cl)c2)CCC(C)(O)CC1 (stereo not drawn) = -5
CNCC1(c2ccc(Cl)c(Cl)c2)CCC(C)(O)CC1 (stereo not drawn) = 14

Now look at this one.
[Q] Fill in receptor occupancy at 3 mg/kg for record CN(C)C[C@]1(c2ccc(Cl)c(Cl)c2)CCCC[C@H]1O (relative stereo) [153 E2]
[A] 8
